Experimental protocol: Oral bioavailability in rat (Sprague-Dawley) (male) (dose 10 mg/kg)
Format: ADME, organism-based
Conditions: in vivo
Recorded endpoint: bioavailability (%)

>>> reading("N#Cc1ccc(OCc2ccsc2)cc1OC(C(=O)O)c1ccccc1Cl (centres undefined)")
129
>>> reading("Cc1ccccc1C(Oc1cc(OCc2ccncc2)ccc1C#N)C(=O)[O-].[Na+] (centres undefined)")
9
>>> reading("N#Cc1ccc(OCc2ccc3c(c2)OCO3)cc1OC(C(=O)O)c1ccccc1Cl (centres undefined)")
76
>>> reading("Cc1ccccc1C(Oc1cc(OCc2ccc3c(c2)OCO3)ccc1C#N)C(=O)[O-].[Na+] (centres undefined)")
84
